Test: Pharmacokinetic determination in mice (IV and PO, plasma, LCMS/MS)
Type: in vivo, Balb/c mice
Conditions: male, Balb/c, mouse, in vivo, iv, 1 mg/kg
readout_label: C0 (ng/mL)
Give just the number in ng/mL; leave the unit off.

Exercise: Which C0 is reported for this compound? C#Cc1c(F)ccc2cc(O)cc(-c3nc4c5c(nc(OCC6(CN7CCC(=NOC)CC7)CC6)nc5c3F)N3CC5CCC(N5)C3CO4)c12 (centres unmarked)
Solution: 939

Exercise: Which C0 is listed for C#Cc1c(F)ccc2cc(O)cc(-c3ncc4c(N5CC6CCC(C5)N6)nc(OC[C@@]56CCCN5C[C@H](F)C6)nc4c3F)c12 [MRTX-1133, reference compound] ?
Solution: 854

* * *

Experiment: Pharmacokinetic determination in mice (IV and PO, plasma, LCMS/MS)
Type: in vivo, Balb/c mice
Conditions: mouse, in vivo; PO, 30 mg/kg, male Balb/c mice, overnight fasting, plasma; read-out: T1/2 (converted)
Would you kindly list half-life for each of these compounds?
Numeric only. Scale: h

Exercise: Quick check: half-life of C#Cc1c(F)ccc2cc(O)cc(-c3nc4c5c(nc(OCC6(CN7CCC(=C(F)F)CC7)CC6)nc5c3F)N3C[C@H]5CC[C@H](N5)[C@H]3[C@H](CC)O4)c12 ?
Solution: 6.6

Exercise: For the compound C#Cc1c(F)ccc2cc(O)cc(-c3nc4c5c(nc(OCC6(CN7CCC(=CF)C7)CC6)nc5c3F)N3C[C@H]5CC[C@H](N5)[C@H]3[C@H](C)O4)c12 , what half-life is on record?
Solution: 18.3

Exercise: Bench note: what half-life did C#Cc1c(F)ccc2cc(O)cc(-c3nc4c5c(nc(OCC6(CN7CCC(=C(F)F)CC7)CC6)nc5c3F)N3C[C@H]5CC[C@H](N5)[C@H]3[C@H](C)O4)c12 show?
Solution: 7.2

Exercise: Which half-life is reported for this compound? C#Cc1c(F)ccc2cc(O)cc(-c3nc4c5c(nc(OCC6(CN7CCC(=C(F)F)CC7)CC6)nc5c3F)N3C[C@H]5CC[C@H](N5)[C@H]3CO4)c12
Solution: 9.1

Exercise: Look at this compound and give its reported half-life. CON=C1CCN(CC2(COc3nc4c5c(nc(-c6cc(N)cc(Cl)c6C(F)(F)F)c(F)c5n3)O[C@@H](C)[C@@H]3[C@@H]5CC[C@H](CN43)N5)CC2)CC1
Solution: 1.7

Exercise: Query (compound): [2H]C([2H])([2H])[C@@H]1Oc2nc(-c3cc(N)cc(Cl)c3C(F)(F)F)c(F)c3nc(OCC4(CN5CCC(=NOC)CC5)CC4)nc(c23)N2C[C@H]3CC[C@H](N3)[C@@H]12 ; field requested: half-life
Solution: 1.8

* * *

Assay: Pharmacokinetic determination in mice (IV and PO, plasma, LCMS/MS)
Type: in vivo, Balb/c mice
Settings: mouse, in vivo, po, 30 mg/kg
readout_label: AUC(0-inf) (ng·h/mL)
# output: bare number, implied unit ng·h/mL

Exercise: Quick one: AUC(0-inf) for [2H]C([2H])([2H])[C@@H]1Oc2nc(-c3cc(O)cc4ccc(F)c(C#C)c34)c(F)c3nc(OCC4(CN5CCC(=C(F)F)CC5)CC4)nc(c23)N2C[C@H]3CC[C@H](N3)[C@@H]12 ?
Solution: 1550
